system: Plasmodium falciparum; assay: Antiplasmodial activity against chloroquine-resistant Plasmodium falciparum Dd2 incubated for 3 days by HRP2 detection based ELISA method; format: functional, organism-based; details: Dd2, 72 h
IC50 for assorted molecules
Report only the number, with the unit nM understood.

Reference set, count: 5
molecule	target.under.test	unit.abbrev	IC50
CN(O)C(=O)COC(c1ccc(Cl)c(Cl)c1)P(=O)(O)O (configuration not stated)	Plasmodium falciparum	nM	140
CN(O)C(=O)COC(c1cccc2ccccc12)P(=O)(O)O (configuration not stated)	Plasmodium falciparum	nM	350
O=CN(O)CCCP(=O)(O)O [FOSMIDOMYCIN SODIUM]	Plasmodium falciparum	nM	810
CN(O)C(=O)COC(c1ccc(F)c(F)c1)P(=O)(O)O (configuration not stated)	Plasmodium falciparum	nM	130
CCN(O)C(=O)COC(c1ccccc1)P(=O)(O)O (configuration not stated)	Plasmodium falciparum	nM	3800

// next entry
input: For CN(O)C(=O)COC(c1ccc(F)cc1)P(=O)(O)O (configuration not stated) , what is its reported IC50?
output: 350

// data source = ChEMBL document CHEMBL2163278
